- Test System: Recombinant human HSD17B13 enzyme (Homo sapiens)
- Sequence (Q7Z5P4 20-300): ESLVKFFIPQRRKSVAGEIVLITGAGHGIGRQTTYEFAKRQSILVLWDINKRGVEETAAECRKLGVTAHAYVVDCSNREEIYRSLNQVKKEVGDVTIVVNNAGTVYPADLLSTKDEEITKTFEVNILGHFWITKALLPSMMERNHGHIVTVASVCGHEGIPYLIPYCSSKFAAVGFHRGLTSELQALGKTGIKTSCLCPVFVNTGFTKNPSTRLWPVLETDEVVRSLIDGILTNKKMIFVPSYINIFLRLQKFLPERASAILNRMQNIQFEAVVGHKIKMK
- Test Name: HSD17b13 NAD(P)H-Glo biochemical assay
- Condition: 50 uM estradiol, 1 mM NAD+, NAD(P)H-Glo luminescence; read-out: HSD17β13 IC50
pIC50: −log10 of the molar value.
Documented pIC50 across a set of molecules

Please review the following examples before continuing.
{"columns": ["Molecule", "pIC50"],
 "data": [
  ["Cn1nc(-c2cc(C(F)(F)F)c(F)c(O)c2F)c2cnc(N3CCC4(CCOC4)CC3)nc21 [Compound 18.37]", "> 7.00"],
  ["Oc1c(F)c(-c2nn(C3CCCOC3)c3nc(N4CCOCC45CC5)ccc23)cc(C(F)(F)F)c1F (stereo not shown) [Compound 9.71]", "6.00 to 7.00"],
  ["Cn1nc(-c2cc(C(F)(F)F)c(F)c(O)c2F)c2cnc(N3CCCCC3COc3ccccc3)nc21 (stereo not shown) [Compound 18.98]", "> 7.00"]
]}

// next entry
INPUT: So what does the record say about pIC50 for Cn1nc(-c2cc(C(F)(F)F)c(F)c(O)c2F)c2cnc(N3CCC(c4ccccc4)CC3)nc21 [Compound 18.44] ?
OUTPUT: > 7.00
